Origin of the recorded values: ChEMBL document CHEMBL1201862

# Tested on: UACC-257
# experimentDescription: NCI tumour cell line growth inhibition, 48 h
Active and inactive are the calls of the source. Cut-off read from the data, not from the text of the source: active = GI50 up to about 1.1 µM and inactive = higher.
readoutName: GI50

The recorded GI50 for entry Sc1nnc(-c2ccccc2Nc2ccccc2-c2nnc(S)n2-c2ccccc2)n1-c1ccccc1 equals 44.3 µM (inactive)

Entry C=CC[C@@H]1C(=O)[C@@]2(O[Si](C(C)C)(C(C)C)C(C)C)CC[C@@H]1C[C@H]2NC(=O)OCC(Cl)(Cl)Cl ; GI50 = 43.8 µM (inactive)

// recorded GI50 for CCOC(=O)NC(=S)c1ccc(O)c2ccccc12 : > 100 µM (inactive)

// COc1cc(/C=C/c2ccnc3ccccc23)cc(OC)c1OC : GI50 value = 5.27 µM (inactive)

Lab note: measured GI50 of CCC(CCCC[C@H]1CC[C@@H]2CC(=O)C[C@H]12)OC (stereo partly specified) was 46.5 µM (inactive)

Value of measured GI50 for the entry CCOC(=O)/C(=C\NCc1ccc2c(c1)OCO2)c1nc2ccccc2[nH]1 : 64.6 µM (inactive)

Sample CC1(CCCCO)C=CC(S(=O)(=O)c2ccccc2)CC1 (stereo unspecified) ; GI50 observed: 4.41 µM (inactive)

Entry CC(=O)CCn1[nH]c(=O)c(Cl)c(Cl)c1=O ; GI50 = > 100 µM (inactive)

// GI50 lookup, compound = CCOC(=O)c1c[nH]c(C(=O)C=[N+]=[N-])c1C1CCN(CC)C1=S (stereo unspecified) , result: > 100 µM (inactive)

For record COc1cc(Br)cc2nc(-c3cccs3)oc12 the listed GI50 is > 100 µM (inactive)

Just so you know, measured GI50 for O=C(NN1C(=O)CSC1c1ccco1)c1ccncc1 (stereo unspecified) came out at > 100 µM (inactive)

###

# Test system: NCI-H23
# experimentDescription: NCI tumour cell line growth inhibition, 48 h
Calls of active or inactive are those of the source. Rule as the data show it: active = GI50 up to about 1.1 µM and inactive = higher.
Kindly supply the reported GI50 values for the records listed here.

Notebook: COC(=O)C(Cc1nc2ccccc2nc1O)C(=O)C(=O)Nc1ccc([N+](=O)[O-])cc1[N+](=O)[O-] (stereo unspecified) , GI50 read as 18.7 µM (inactive)

So, NS(=O)(=O)c1ccc(NCc2cccc3c(=O)c4ccc(Cl)cc4oc23)cc1 ? Its GI50 was 31.5 µM (inactive)

The compound N#C[BH2-][n+]1ccc(C(=O)NNC(c2ccccc2)C(F)(F)F)cc1 (stereo unspecified) showed GI50 equal to 31.7 µM (inactive)

// recorded GI50 for CC(Oc1ccc(Oc2cnc3ccc(Cl)cc3n2)cc1)C(=O)O (stereo unspecified) : > 76.4 µM (inactive)

// GI50 lookup, compound = COc1cc(Br)cc2nc(-c3cccs3)oc12 , result: > 68.1 µM (inactive)

// sample c1ccc(CN(Cc2ccccn2)Cn2cccn2)nc1 , its GI50 was 50.5 µM (inactive)

So for C=CCNC(=O)N(CCCCC(NC(C)=O)C(=O)NCc1ccccc1)Cc1ccccc1 (stereo unspecified) , the logged GI50 turned out to be > 100 µM (inactive)

# compound CCN(CC)C(=S)SNCc1ccc(S(N)(=O)=O)cc1 ; its GI50 = 19.3 µM (inactive)

Per the records, this compound ( Cc1[nH]c(=O)[nH]c(=O)c1/C=C/C(=O)NC(CO)C[S+]([O-])Cc1ccccc1 (stereo unspecified) ) has GI50 equal to > 300 µM (inactive)

According to the records, this compound CCOC(=O)c1c(N2CCCC2)nsc1Nc1ccc(F)cc1 displays GI50 of 27.1 µM (inactive)

GI50 for Cn1c(=O)c2nc3c4ccccc4c(=O)n(C)c3nc2n(C)c1=O is > 100 µM (inactive)
